The compounds listed here are annotated with their solubility (mole fraction).
CONDITION NOTES: in water, 293.15 K
I only need the number, thanks.

# solubility (mole fraction) (compound: O=S(=O)([O-])c1ccc2cc(S(=O)(=O)[O-])ccc2c1.[Na+].[Na+] ) is 0.00366

Further cases:
# solubility (mole fraction) of O=S(=O)([O-])c1ccc2ccc(S(=O)(=O)[O-])cc2c1.[Na+].[Na+] = 0.0159

Values were extracted from BigSolDB 2.1.
